experiment: Production of hydroxy-L-pipecolic acids by culture of recombinant E. coli expressing the hydroxylase (Example 5); type: cell-based, E. coli BL21 (DE3); details: after 120 hours, 20 mmol/L L-pipecolic acid in medium, 30° C.
measuredParameter: Accumulation amount of (5S)-Hydroxy-L-pipecolic acid (mmol/L)
Could you give me the number in mmol/L? Just the number is fine.

SmPH: L-proline cis-4-hydroxylase from Sinorhizobium meliloti 1021, GenBank CAC47686, SEQ ID NO: 10 (protein, listed as Sinorhizobium meliloti) MSTHFLGKVKFDEARLAEDLSTLEVAEFSSAYSDFACGKWEACVLRNRTGMQEEDIVVSHNAPALATPLSKSLPYLNELVETHFDCSAVRYTRIVRVSENACIIPHSDYLELDETFTRLHLVLDTNSGCANTEEDKIFHMGLGEIWFLDAMLPHSAACFSKTPRLHLMIDFEATAFPESFLRNVEQPVTTRDMVDPRKELTDEVIEGILGFSIIISEANYREIVSILAKLHFFYKADCRSMYDWLKEICKRRGDPALIEKTASLERFFLGHRERGEVMTY ... 9.4
XdPH: L-proline cis-4-hydroxylase from Xenorhabdus doucetiae FRM16, GenBank CDG16639, SEQ ID NO: 8 (protein, listed as Xenorhabdus doucetiae) MMSAKLLASIELNQEQIEHDLNIVGSEILDVAYSEYACGNWGTITLWNHSGDAGDQTSREYVGQARPTELGQQLDCINQLIRNNFNISLIKSVRIFRSYNGGAIYPHIDYLEFNQGFKRVHLVLKSDRSCLNSEENTVYHMLPGEVWFVDGHSAHSAMSLSRVGKYSLVLDFDSGAKFEDLYSESHTLCVDNLEPDIIHDRQPLPTSLRDSLAHIAEHADEFNIQSILFLATRFHFSYAVSIREYFQLLDECFSRNPYKSVRERYEALKDILVRSGYTSHNVNHFNSLSGVTIG ... 15.2

Prompt line: For CaPH: L-proline cis-4-hydroxylase from Catenulispora acidiphila NBRC102108, GenBank WP_012787640, SEQ ID NO: 6 (protein, listed as Catenulispora acidiphila) MRTQYVAALELDEGRLAKDLETSASFNYSEAYSNYLIGGPWKSAMLYSAGGDAGDGLLTDYDYRQSSDFTDYGRQMPYLQELISTSVDLSRLTFVRLARFAKSVIVPHRDFLELEEIPEDKRSAHRLHIPLATHEECFFSEDNVVYRMRAGELWYFDASRIHSVVSFAEEPRIHLIFDFADRPGAGSLVTVPGEPEGAGVPAASAVDRPQLSDAERAALARLADVLTMDTFSEIFSVLVKKHFRRDGGEHFVWDTLTALARACPDPAVLPHTQELRRYFTLERPSGSGQA , what is its reported Accumulation amount of (5S)-Hydroxy-L-pipecolic acid?
Response line: 0.8

src = patent US12173330B2
